target: T1, monoclonal antibody 3C4; assay: phage ELISA, coated mAb 3C4, 10^10 phagemid per well
T1 construct: also called mAb 3C4; 3C4 (3CY)
T1 sequence (VH, as listed by the source, chain 1 of 2): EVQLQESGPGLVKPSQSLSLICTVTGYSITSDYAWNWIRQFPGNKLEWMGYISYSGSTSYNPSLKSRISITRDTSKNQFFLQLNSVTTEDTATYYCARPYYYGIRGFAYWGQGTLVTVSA
T1 sequence (VL, as listed by the source, chain 2 of 2): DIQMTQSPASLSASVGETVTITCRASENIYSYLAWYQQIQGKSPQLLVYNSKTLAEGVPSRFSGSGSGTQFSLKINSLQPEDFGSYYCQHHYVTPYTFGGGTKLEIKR
Positions of bridges follow the written chain, without caps; N, C: chain ends. No end group written: not given here.
Friendly reminder: ELISA (absorbance units) below 0.3 absorbance units is Y, at or above is N.

Record CSLFYLWDQDRCS (disulfide 1-12 (inferred); also: displayed on phage (phagemid), coat fusion not given here) [phagemid CS1-2p (phage-displayed disulfide cyclized 13 mer peptide)] : is its ELISA (absorbance units) strictly below 0.3 absorbance units?
Y

Record CSGLYPWDMFRCS (disulfide 1-12 (inferred); also: displayed on phage (phagemid)) [phagemid CS1-9p (phage-displayed disulfide cyclized 13 mer peptide)] : is its ELISA (absorbance units) strictly below 0.3 absorbance units?
N

Record CSFRYLWDQDRCS (disulfide 1-12 (inferred); also: displayed on phage (phagemid)) [phagemid CS1-6p (phage-displayed disulfide cyclized 13 mer peptide)] : is its ELISA (absorbance units) strictly below 0.3 absorbance units?
N

Record CSFRYQWDMFRCS (disulfide 1-12 (inferred); also: displayed on phage (phagemid)) [phagemid CS1-11p (phage-displayed disulfide cyclized 13 mer peptide)] : is its ELISA (absorbance units) strictly below 0.3 absorbance units?
N

Record CSGLYPWDYFMCS (disulfide 1-12 (inferred); also: displayed on phage (phagemid)) [phagemid CS1-29p (phage-displayed disulfide cyclized 13 mer peptide)] : is its ELISA (absorbance units) strictly below 0.3 absorbance units?
N

Values were extracted from patent US20140147868A1.
